molecular target: T1, human GPC3 (human, UniProt P51654 25-563); experiment: SPR
T1 construct: range 25-563; soluble analyte; also called soluble human GPC3; glypican 3
T1 sequence (P51654 25-563 limits assumed): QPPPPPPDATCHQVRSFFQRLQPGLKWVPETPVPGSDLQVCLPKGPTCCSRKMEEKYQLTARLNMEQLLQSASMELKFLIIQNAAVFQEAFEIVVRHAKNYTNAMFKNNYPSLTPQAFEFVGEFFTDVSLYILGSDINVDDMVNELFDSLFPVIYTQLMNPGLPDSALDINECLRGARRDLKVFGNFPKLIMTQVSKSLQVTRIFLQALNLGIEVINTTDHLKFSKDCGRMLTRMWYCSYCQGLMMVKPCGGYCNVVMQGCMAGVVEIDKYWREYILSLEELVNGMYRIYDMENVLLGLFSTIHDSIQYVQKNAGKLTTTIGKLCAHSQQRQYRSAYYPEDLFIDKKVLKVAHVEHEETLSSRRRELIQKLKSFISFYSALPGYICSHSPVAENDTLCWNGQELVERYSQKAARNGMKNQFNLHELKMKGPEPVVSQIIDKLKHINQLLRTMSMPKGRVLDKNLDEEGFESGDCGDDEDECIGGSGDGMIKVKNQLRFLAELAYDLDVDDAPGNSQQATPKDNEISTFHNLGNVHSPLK
Metric Name: Kd (nM)
Please give a number only; it is taken to be in nM.

Example entries begin here.
Binder | Observed Value
H0610-G1dh/none-Hi-Kn010G3/L0201-k0 (antibody, V domains shown, one-arm) VH: QVQLVQSGAEVKKPGASVKVSCKASGYTFTDYEMHWIRQPPGQGLEWIGAIDGKTPDTAYSQKFKGRVTLTADKSTSTAYMELSSLTSEDTAVYYCTRFYSYTYWGQGTLVTVSS VL: DIVMTQSPLSLPVTPGEPASISCRSSQPPVHSNRNTYLHWYQQKPGQAPRLLIYKVSNRFSGVPDRFSGSGSGTDFTLKISRVEAEDVGVYYCGQGTQVPYTFGQGTKLEIKR | 1.13
H0610-G1dh/none-Hi-Kn010G3/L0147-k0 (antibody, V domains shown, one-arm) VH: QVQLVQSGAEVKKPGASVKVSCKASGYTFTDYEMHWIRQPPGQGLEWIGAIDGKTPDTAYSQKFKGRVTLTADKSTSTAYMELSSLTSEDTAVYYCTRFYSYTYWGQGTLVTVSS VL: DIVMTQSPLSLPVTPGEPASISCRSSQSLVHSNRNTYLHWYQQKPGQAPRLLIYKVSNRFVGVPDRFSGSGSGTDFTLKISRVEAEDVGVYYCGQGTQVPYTFGQGTKLEIK | 4.38

Shifting focus to the binder that follows.
Dear colleague, I am looking for the recorded Kd of the following binder: GCH061-G1dh/none-Hi-Kn010G3/L0000-k0 (antibody, V domains shown, one-arm) VH: QVQLVQSGAEVKKPGASVKVSCKASGYTFTDYEMHWVRQAPGQGLEWIGAIDGKTPDTAYSQKFKGRVTLTADKSTSTAYMELSSLTSEDTAVYYCTRFYSYTYWGQGTLVTVSS VL: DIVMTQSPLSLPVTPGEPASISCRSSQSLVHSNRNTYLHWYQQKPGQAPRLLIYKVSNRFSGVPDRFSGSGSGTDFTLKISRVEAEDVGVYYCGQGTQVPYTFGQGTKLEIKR
5.13
